# SYSTEM UNDER TEST: recombinant human GST-Syk (Homo sapiens, UniProt P43405)
# Construct: purchased Carna Biosciences 08-176
# PROCEDURE DETAILS: Homogeneous Time-Resolved Fluorescence (HTRF) assay for the recombinant human Syk enzyme
# Assay type: biochemical
# CONDITIONS: recombinant human GST-Syk 5 pM, ATP 25 μM, read-out: IC50
MEASURED PARAMETER: pIC50
Scale for pIC50: -log10 of concentration given in mol/L; no unit attached.

1) Cc1cc(Nc2cc(C(F)F)ccn2)nc(-c2ccc([C@](C)(O)[C@H]3CC[C@H](C(=O)OC[N+]4(C)CCC(O)CC4)CC3)nc2)c1 (some centres unmarked): 8.82
2) CC[N+](CC)(CC)COC(=O)[C@H]1CC[C@H]([C@@](C)(O)c2ccc(-c3cc(C)cc(Nc4cc(C(F)F)ccn4)n3)cn2)CC1: 8.85
3) Cc1cc(Nc2cc(C(F)F)ccn2)nc(-c2ccc([C@](C)(O)[C@H]3CC[C@H](C(=O)OC4CCNCC4)CC3)nc2)c1: 8.39
4) COCCN(C)C(=O)OC(C)OC(=O)[C@H]1CC[C@H]([C@@](C)(O)c2ccc(-c3cc(C)cc(Nc4cc(C(F)F)ccn4)n3)cn2)CC1 (mixture of isomers) [Example 4-1]: 7.68
5) Cc1cc(Nc2cc(C(F)F)ccn2)nc(-c2ccc([C@](C)(O)[C@H]3CC[C@H](C(=O)OCOC(=O)OCC4CCOCC4)CC3)nc2)c1: 7.57
6) Cc1cc(Nc2cc(C(F)F)ccn2)nc(-c2ccc([C@](C)(O)[C@H]3CC[C@H](C(=O)OC[C@@H](O)CO)CC3)nc2)c1: 8.60
7) Cc1cc(Nc2cc(C(F)F)ccn2)nc(-c2ccc([C@](C)(O)[C@H]3CC[C@H](C(=O)OCOC(=O)OCCOCc4ccccc4)CC3)nc2)c1: 8.21
8) Cc1cc(Nc2cc(C(F)F)ccn2)nc(-c2ccc([C@](C)(O)[C@H]3CC[C@H](C(=O)OCn4cc[n+](C)c4)CC3)nc2)c1: 9.10
9) Cc1cc(Nc2cc(C(F)F)ccn2)nc(-c2ccc([C@](C)(O)[C@H]3CC[C@H](C(=O)OC[N+](C)(C)CCN(C)C)CC3)nc2)c1: 8.89
10) COCCN(C)C(=O)OCOC(=O)[C@H]1CC[C@H]([C@@](C)(O)c2ccc(-c3cc(C)cc(Nc4cc(C(F)F)ccn4)n3)cn2)CC1: 8.04

Qu. Which pIC50 value is on record for Cc1cc(Nc2cc(C(F)F)ccn2)nc(-c2ccc([C@](C)(O)[C@H]3CC[C@H](C(=O)OC[N+]4(C)CCN(C)CC4)CC3)nc2)c1 ?
Ans. 8.70

Qu. Which pIC50 value is on record for Cc1cc(Nc2cc(C(F)F)ccn2)nc(-c2ccc([C@](C)(O)[C@H]3CC[C@H](C(=O)OC[N+]4(C)CCC(F)(F)CC4)CC3)nc2)c1 ?
Ans. 8.89

Qu. Which pIC50 value is on record for Cc1cc(Nc2cc(C(F)F)ccn2)nc(-c2ccc([C@](C)(O)[C@H]3CC[C@H](C(=O)O[C@H]4C[C@H](N)C4)CC3)nc2)c1 [Example 1-5] ?
Ans. 8.36

Qu. Which pIC50 value is on record for CCCC[N+](CC)(CC)COC(=O)[C@H]1CC[C@H]([C@@](C)(O)c2ccc(-c3cc(C)cc(Nc4cc(C(F)F)ccn4)n3)cn2)CC1 ?
Ans. 8.96

Qu. Which pIC50 value is on record for Cc1cc(Nc2cc(C(F)F)ccn2)nc(-c2ccc([C@](C)(O)[C@H]3CC[C@H](C(=O)OCOC(=O)OCCC(=O)N(C)C)CC3)nc2)c1 ?
Ans. 8.82

Qu. Which pIC50 value is on record for Cc1cc(Nc2cc(C(F)F)ccn2)nc(-c2ccc([C@](C)(O)[C@H]3CC[C@H](C(=O)OCOC(=O)OCc4nccn4C)CC3)nc2)c1 ?
Ans. 7.46

Qu. Which pIC50 value is on record for CCCCCCCC[N+](CCCCCCCC)(CCCCCCCC)COC(=O)[C@H]1CC[C@H]([C@@](C)(O)c2ccc(-c3cc(C)cc(Nc4cc(C(F)F)ccn4)n3)cn2)CC1 ?
Ans. 8.60

Qu. Which pIC50 value is on record for CNCCCOC(=O)[C@H]1CC[C@H]([C@@](C)(O)c2ccc(-c3cc(C)cc(Nc4cc(C(F)F)ccn4)n3)cn2)CC1 ?
Ans. 8.74

Qu. Which pIC50 value is on record for COCCOCCOCC(=O)OCOC(=O)[C@H]1CC[C@H]([C@@](C)(O)c2ccc(-c3cc(C)cc(Nc4cc(C(F)F)ccn4)n3)cn2)CC1 ?
Ans. 8.92

Qu. Which pIC50 value is on record for CCCC[N+](C)(CCCC)COC(=O)[C@H]1CC[C@H]([C@@](C)(O)c2ccc(-c3cc(C)cc(Nc4cc(C(F)F)ccn4)n3)cn2)CC1 ?
Ans. 8.85

From: patent US20150299125A1
